Target: T1, recombinant human TIGIT (human, UniProt Q495A1 22-141, limits assumed)
T1 construct: recombinant human TIGIT used in Carterra SPR; also called hTIGIT
T1 sequence (looked up): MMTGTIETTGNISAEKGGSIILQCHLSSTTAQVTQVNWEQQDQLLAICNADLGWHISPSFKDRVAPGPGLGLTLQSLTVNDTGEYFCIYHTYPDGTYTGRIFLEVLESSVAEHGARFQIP
Assay: SPR Carterra, average
measured metric: koff
I'd appreciate it if you included the unit after the number.

Examples from the recorded data:
binder: TIGIT-SC115 (Fc fusion, VHH-Fc fusion in assay) VHH: EVQLVESGGGLVQPGGSLRLSCAASGNTFSGGFMGWFRQAPGKEREWVASVLRGGYTWYADSVKGRFTISADNSKNTAYLQMNSLKPEDTAVYYCAGTGLWGQGTLVTVSS
endpoint result: 0.00241 s⁻¹
//
binder: TIGIT-SC25 (Fc fusion, VHH-Fc fusion in assay) VHH: EVQLVESGGGLVQPGGSLRLSCAASGNTFSGGFMGWFRQAPGKEREWVASVLRGGYTWYADSVKGRFTISADNSKNTAYLQMNSLKPEDTAVYYCTTVGYGDYWGQGTLVTVSS
endpoint result: 0.00174 s⁻¹
//
binder: TIGIT-SC143 (Fc fusion, VHH-Fc fusion in assay) VHH: EVQLVESGGGLVQPGGSLRLSCAASGFTLGYYVMGWFRQAPGKEREFVAAISASGTLRAYADSVEGRFTISADNSKNTAYLQMNSLKPEDTAVYYCARAELGYSYGSVDGYWGQGTLVTVSS
endpoint result: 0.239 s⁻¹
//
binder: TIGIT-SC161 (Fc fusion, VHH-Fc fusion in assay) VHH: EVQLVESGGGLVQPGGSLRLSCAASGFTFSPSWMGWFRQAPGKEREWVASVLRGGYTWYADSVKGRFTISADNSKNTAYLQMNSLKPEDTAVYYCTTDRAIGVRPLFDHWGQGTLVTVSS
endpoint result: 0.00146 s⁻¹
//
binder: TIGIT-SC20 (Fc fusion, VHH-Fc fusion in assay) VHH: EVQLVESGGGLVQPGGSLRLSCAASGNTFSGGFMGWFRQAPGKEREWVASVLRGGYTWYADSVKGRFTISADNSKNTAYLQMNSLKPEDTAVYYCATPRGYWGQGTLVTVSS
endpoint result: 0.0007 s⁻¹

Query: Any idea what its koff is? The binder is TIGIT-SC180 (Fc fusion, VHH-Fc fusion in assay) VHH: EVQLVESGGGLVQPGGSLRLSCAASGFTLNDYAMGWFRQAPGKERELVAWIARYDGSTLYADSVKGRFTISADNSKNTAYLQMNSLKPEDTAVYYCASEVASGETDYWGQGTLVTVSS
Response: 0.0101 s⁻¹

Query: // next record TIGIT-SC202 (Fc fusion, VHH-Fc fusion in assay) VHH: EVQLVESGGGLVQPGGSLRLSCAASGFTFSPSWMGWFRQAPGKEREWVASVLRGGYTWYADSVKGRFTISADNSKNTAYLQMNSLKPEDTAVYYCTTDGGYSGIVGFAWGQGTLVTVSS
Response: 0.0934 s⁻¹
